B1: VDR (parent)
chain: LIKFQVGLKKLNLHEEEHVLLMAI

# Variants of: B1
# assay_text: protein stability index of a GFP-peptide fusion (GPS, HEK-293T) (PSI 1-6); higher = more stable;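 note: lentivirally expressed fusions sorted by FACS into six bins by GFP to DsRed ratio, PSI derived from sequencing read proportions per bin multiplied by bin number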
# experimental_conditions: c terminus: a fixed tail appended
protein stability index below 3 gives n; protein stability index at or above it gives y.

[[record]]
polymer_sequence = "LIKFQVGLCKLNLHEEEHVLLMAI [K9C]"
label_value = "y"

[[record]]
polymer_sequence = "LIKFQQGLKKLNLHEEEHVLLMAI [V6Q]"
label_value = "n"

[[record]]
polymer_sequence = "LIKFQVGLKKLNLHECEHVLLMAI [E16C]"
label_value = "y"

[[record]]
polymer_sequence = "LIKFQVGLKKLNLHEEEHVLLKAI [M22K]"
label_value = "n"

[[record]]
polymer_sequence = "LIKFQVGLKVLNLHEEEHVLLMAI [K10V]"
label_value = "n"

[[record]]
polymer_sequence = "LIKFQVGNKKLNLHEEEHVLLMAI [L8N]"
label_value = "n"

[[record]]
polymer_sequence = "LIKFQVGIKKLNLHEEEHVLLMAI [L8I]"
label_value = "y"

[[record]]
polymer_sequence = "LIKFQVGLKKLFLHEEEHVLLMAI [N12F]"
label_value = "n"

[[record]]
polymer_sequence = "LIKFQVGLKKLNLHEEEAVLLMAI [H18A]"
label_value = "y"

[[record]]
polymer_sequence = "LIKFQVGLKKLNHHEEEHVLLMAI [L13H]"
label_value = "n"


Here is another variant to look at.
Does the reported protein stability index for LIKRQVGLKKLNLHEEEHVLLMAI [F4R] fall at or above the 3 mark?
n
